Measurement record for Sap3 of Candida albicans (Candida albicans); quantity recorded: pIC50.
pIC50: −log10 of the molar value. Non-standard residues stand in square brackets, D forms with d. Residues, ends and D or L forms follow the SMILES beside them. *: point of attachment. Phe(4-Me) = Cc1ccc(C[C@H](N)C(=O)O)cc1; Sta = CC(C)C[C@H](N)[C@@H](O)CC(=O)O; Isovaleryl = CC(C)CC(=O)*; Nle = CCCC[C@H](N)C(=O)O

Query string: Form field - read-out: pIC50; system: Sap3 of Candida albicans (Candida albicans); submitted item: CC(C)CC(=O)N[C@@H](CC(C)C)C(=O)N[C@H](C(=O)N[C@@H](CC(C)C)[C@@H](O)CC(=O)N[C@@H](C)C(=O)N[C@@H](CC(C)C)[C@@H](O)CC(=O)O)C(C)C [P3(Leu)-pepstatin, (N-Iva-Leu)-Val-Sta-Ala-Sta, reference compound] (Isovaleryl-LV[Sta]A[Sta]-OH)
Sequence (P0CY29 59-398): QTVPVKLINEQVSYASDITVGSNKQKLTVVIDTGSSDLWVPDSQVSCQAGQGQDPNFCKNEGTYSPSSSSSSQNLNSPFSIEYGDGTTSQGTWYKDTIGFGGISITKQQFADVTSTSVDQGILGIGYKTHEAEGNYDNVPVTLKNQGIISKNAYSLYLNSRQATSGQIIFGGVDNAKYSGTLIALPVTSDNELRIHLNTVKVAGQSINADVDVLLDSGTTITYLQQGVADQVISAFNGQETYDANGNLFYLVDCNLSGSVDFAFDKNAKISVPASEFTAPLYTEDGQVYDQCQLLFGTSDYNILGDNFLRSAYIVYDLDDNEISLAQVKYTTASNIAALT
Result string: > 8.30

Query string: Form field - read-out: pIC50; system: Sap3 of Candida albicans (Candida albicans); submitted item: CC(C)CC(=O)N[C@H](C(=O)N[C@H](C(=O)N[C@@H](CC(C)C)[C@@H](O)CC(=O)N[C@@H](CCCCN)C(=O)N[C@@H](CC(C)C)[C@@H](O)CC(=O)O)C(C)C)C(C)C [P1'(Lys)-pepstatin, (N-Iva-Val)-Val-Sta-Lys-Sta] (Isovaleryl-VV[Sta]K[Sta]-OH)
Result string: > 8.30

Query string: Form field - read-out: pIC50; system: Sap3 of Candida albicans (Candida albicans); submitted item: CC(C)CC(=O)N[C@H](C(=O)N[C@H](C(=O)N[C@@H](CC(C)C)[C@@H](O)CC(=O)N[C@@H](CCCNC(=N)N)C(=O)N[C@@H](CC(C)C)[C@@H](O)CC(=O)O)C(C)C)C(C)C [P1'(Arg)-pepstatin, (N-Iva-Val)-Val-Sta-Arg-Sta] (Isovaleryl-VV[Sta]R[Sta]-OH)
Result string: > 8.30

Query string: Form field - read-out: pIC50; system: Sap3 of Candida albicans (Candida albicans); submitted item: CC(C)(C)NC(=O)[C@@H]1C[C@@H]2CCCC[C@@H]2CN1C[C@@H](O)[C@H](Cc1ccccc1)NC(=O)[C@H](CC(N)=O)NC(=O)c1ccc2ccccc2n1 [Saquinavir, reference compound]
Result string: ~3.70

Query string: Form field - read-out: pIC50; system: Sap3 of Candida albicans (Candida albicans); submitted item: Cc1ccc(C[C@H](NC(=O)CC(C)C)C(=O)N[C@H](C(=O)N[C@@H](CC(C)C)[C@@H](O)CC(=O)N[C@@H](C)C(=O)N[C@@H](CC(C)C)[C@@H](O)CC(=O)O)C(C)C)cc1 [P3(MePhe)-pepstatin, (N-Iva-pMePhe)-Val-Sta-Ala-Sta] (Isovaleryl-[Phe(4-Me)]V[Sta]A[Sta]-OH)
Result string: ~8.30

Query string: Form field - read-out: pIC50; system: Sap3 of Candida albicans (Candida albicans); submitted item: CCCC[C@H](NC(=O)[C@H](Cc1ccccc1)NC(=O)CC(C)C)C(=O)N[C@@H](CC(C)C)[C@@H](O)CC(=O)N[C@@H](CCCCN)C(=O)N[C@@H](CC(C)C)[C@@H](O)CC(=O)O [Compound K, (N-Iva-Phe)-Nle-Sta-Lys-Sta] (Isovaleryl-F[Nle][Sta]K[Sta]-OH)
Result string: 7.70

Query string: Form field - read-out: pIC50; system: Sap3 of Candida albicans (Candida albicans); submitted item: COc1ccc(C[C@H](NC(=O)CC(C)C)C(=O)N[C@H](C(=O)N[C@@H](CC(C)C)[C@@H](O)CC(=O)N[C@@H](C)C(=O)N[C@@H](CC(C)C)[C@@H](O)CC(=O)O)C(C)C)cc1 [P3(O—MeTyr)-pepstatin, (N-Iva-OMeTyr)-Val-Sta-Ala-Sta] (Isovaleryl-Y(Me)V[Sta]A[Sta]-OH)
Result string: ~8.30
